tested on: A549; test: Cytotoxicity against human A549 cells by MTT assay; assay type: functional, cell-based
Exercise: state measured pIC50 for each of the molecules provided.
Numbers only, as −log10 of the molar value.

Below are some molecules; for each one, tell me its pIC50.
1. C[C@@H]1CC[C@@]2(OC1)O[C@H]1C[C@H]3[C@@H]4CC=C5C[C@@H](O[C@@H]6O[C@H](CO)[C@@H](O[C@@H]7O[C@@H](C)[C@H](O)[C@@H](O)[C@H]7O)[C@H](O)[C@H]6O[C@@H]6O[C@@H](C)[C@H](O)[C@@H](O)[C@H]6O)CC[C@]5(C)[C@H]4CC[C@]3(C)[C@H]1[C@@H]2C [DIOSCIN]
2. COc1ccc(C(=O)O[C@H]2[C@H](O[C@@H]3[C@@H](OC(C)=O)[C@H](O[C@@H]4CC([C@H](C)C(=O)CC[C@@H](C)CO)[C@@]5(C)CC[C@H]6[C@@H](CC[C@H]7C[C@@H](O)CC[C@@]76C)[C@H]45)OC[C@@H]3O)OC[C@@H](O)[C@@H]2O)cc1 (some centres undefined)

[6.34, 6.07]

Provenance of the data: ChEMBL document CHEMBL1770145
